Biological target: Human IL-17A (Homo sapiens)
Sequence (Q16552 20-155 limits assumed): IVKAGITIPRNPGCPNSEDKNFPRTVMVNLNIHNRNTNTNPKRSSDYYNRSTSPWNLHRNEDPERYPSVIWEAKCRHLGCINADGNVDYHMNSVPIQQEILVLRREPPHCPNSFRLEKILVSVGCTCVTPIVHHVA
Experiment: IL-17A enzyme-linked immunosorbent assay (competitive ELISA, IL-17A/IL-17Ra receptor-ligand binding)
Design: purchased Sino Biological Inc. 12047-H07B
Settings: human IL-17A coated plate, human IL-17Ra, read-out: IC50, inhibitory activity of compounds on human IL-17A
pIC50: −log10 of the molar value.
Quick list: pIC50 per entry.

Consider the reported pIC50 for these compounds:
{"columns": ["Compound", "System Under Test", "Endpoint Name", "Data Value"],
 "data": [
  ["Cc1[nH]nc2c1-c1cc(F)c(NC(=O)[C@@H](NC(=O)c3ccnn3C(F)F)C(C3CC3)C3CC3)cc1COCC2", "Human IL-17A (Homo sapiens)", "pIC50", "6.82 to 7.30"],
  ["Cc1[nH]nc2c1-c1cc(F)c(NC(=O)[C@@H](NC(=O)c3ccnn3CC3CC3)C(C3CC3)C3CC3)cc1COCC2", "Human IL-17A (Homo sapiens)", "pIC50", "≥ 7.30"],
  ["CCn1nccc1C(=O)N[C@H](C(=O)Nc1cc2c(cc1F)-c1c(n[nH]c1C)CC(C)OC2)C(C1CC1)C1CC1 (single isomer, unassigned) [compound 119b]", "Human IL-17A (Homo sapiens)", "pIC50", "≥ 7.30"]
]}

Lab note: Human IL-17A (Homo sapiens) assay, enter pIC50 for "[2H]C([2H])([2H])C([2H])([2H])n1nccc1C(=O)N[C@H](C(=O)Nc1cc2c(cc1F)-c1c(n[nH]c1C)CCOC2)C(C1CC1)C1CC1" here
≥ 7.30

Lab note: Human IL-17A (Homo sapiens) assay, enter pIC50 for "Cc1[nH]nc2c1-c1cc(F)c(NC(=O)[C@@H](NC(=O)c3ccnn3C(C)C)C(C3CC3)C3CC3)cc1CN(CC1CC1)C(=O)C2" here
≥ 7.30

Lab note: Human IL-17A (Homo sapiens) assay, enter pIC50 for CSCC(C)n1nccc1C(=O)N[C@H](C(=O)Nc1cc2c(cc1F)-c1c(n[nH]c1C)CCOC2)C(C1CC1)C1CC1 (single isomer, unassigned) [compound 40b] here
≥ 7.30

----------
Quick list: IC50 per entry.
Molecular target: Human IL-17AF (Homo sapiens, UniProt Q16552+Q96PD4)
Assay: IL-17AF ELISA (competitive ELISA, IL-17AF/IL-17Ra receptor-ligand binding)
Conditions: human IL-17AF coated plate, human IL-17Ra, read-out: IC50, inhibitory activity of compounds on human IL-17AF

Consider the reported IC50 for these molecules:
{"columns": ["Molecule", "System Under Test", "Endpoint Name", "Data Value"],
 "data": [
  ["CCN1Cc2cc(NC(=O)[C@@H](NC(=O)c3ccnn3CC)C(C3CC3)C3CC3)c(F)cc2-c2c(n[nH]c2C)CC1=O [compound 143]", "Human IL-17AF (Homo sapiens, UniProt Q16552+Q96PD4)", "IC50", "≤ 100 nM"],
  ["Cc1[nH]nc2c1-c1cc(F)c(NC(=O)[C@@H](NC(=O)c3ccnn3C)C(C3CC3)C3CC3)cc1COCC2 [compound 17]", "Human IL-17AF (Homo sapiens, UniProt Q16552+Q96PD4)", "IC50", "100 to 500 nM"]
]}

Quote IC50 reported for Cc1[nH]nc2c1-c1cc(F)c(NC(=O)[C@@H](NC(=O)c3ccnn3C(C)C)C(C3CC3)C3CC3)cc1CN(CC1CC1)CC2 [compound 166] please.
100 to 500 nM

----------
Target: UniProt Q16552
Test: IL-17A enzyme-linked immunosorbent assay (competitive ELISA, IL-17A/IL-17Ra receptor-ligand binding)
Set-up: purchased Sino Biological Inc. 12047-H07B
Conditions: human IL-17A coated plate, human IL-17Ra, read-out: IC50, inhibitory activity of compounds on human IL-17A
Quick list: IC50 per entry.

Consider the reported IC50 for these compounds:
{"columns": ["Compound", "Data Value"],
 "data": [
  ["Cc1[nH]nc2c1-c1cc(F)c(NC(=O)[C@@H](NC(=O)c3ccnn3C(C)C)C(C3CC3)C3CC3)cc1CCCC2", "≤ 0.05 µM"],
  ["Cc1[nH]nc2c1-c1cc(F)c(NC(=O)[C@@H](NC(=O)c3ccnn3C(C)C)C(C3CC3)C3CC3)cc1CN(CC(F)F)CC2", "≤ 0.05 µM"]
]}

With those in mind, consider the next compound.
Quote IC50 reported for "Cc1nonc1C(=O)N[C@H](C(=O)Nc1cc2c(cc1F)-c1c(n[nH]c1C)CCOC2)C(C1CC1)C1CC1" please.
≤ 0.05 µM

----------
Molecular target: Human IL-17A (Homo sapiens)
Assay: Inhibition of human IL-17A protein-induced GROα/CXCL1 production in HT-29 cells
Type: cell-based
Parameters: purchased R&D 317-ILB; host or cells: added exogenously to HT-29 cells
Conditions: 30 ng/mL human IL-17A protein, 48 h, GROα in supernatant by ELISA kit, read-out: Inhibitory IC50 of compounds on HT-29 cell GROα/CXCL1
Quick list: IC50 per entry.

{"columns": ["Smiles Record", "IC50"],
 "data": [
  ["Cc1[nH]nc2c1-c1cc(F)c(NC(=O)[C@@H](NC(=O)c3ccnn3C(C)C)C(C3CC3)C3CC3)cc1CN(C1CCOCC1)C(=O)C2", "≤ 100 nM"],
  ["Cc1[nH]nc2c1-c1cc(F)c(NC(=O)[C@@H](NC(=O)c3ccnn3C(C)C)C(C3CC3)C3CC3)cc1CN(C(C)C)C(=O)C2", "≤ 100 nM"]
]}

With those in mind, consider the next molecule.
Quote IC50 reported for "Cc1[nH]nc2c1-c1cc(F)c(NC(=O)[C@@H](NC(=O)c3ccnn3CC3(F)CC3)C(C3CC3)C3CC3)cc1COCC2" please.
100 to 500 nM

----------
Quick list: IC50 per entry.
Molecular target: Human IL-17AF (Homo sapiens, UniProt Q16552+Q96PD4)
Assay: IL-17AF ELISA (competitive ELISA, IL-17AF/IL-17Ra receptor-ligand binding)
Conditions: human IL-17AF coated plate, human IL-17Ra, read-out: IC50, inhibitory activity of compounds on human IL-17AF

Consider the reported IC50 for these compounds:
{"columns": ["Compound", "IC50"],
 "data": [
  ["Cc1[nH]nc2c1-c1cnc(NC(=O)[C@@H](NC(=O)c3conc3C3CC3)C(C3CC3)C3CC3)cc1CN(C1CC1)CC2", "≤ 100 nM"],
  ["Cc1[nH]nc2c1-c1cc(F)c(NC(=O)[C@@H](NC(=O)c3ccnn3C(C)C3CC3)C(C3CC3)C3CC3)cc1COCC2 (single isomer, unassigned) [compound 41a]", "100 to 500 nM"]
]}

Quote IC50 reported for "[2H]C([2H])([2H])C([2H])(n1nccc1C(=O)N[C@H](C(=O)Nc1ccc2c(c1)COCCc1n[nH]c(C)c1-2)C(C1CC1)C1CC1)C([2H])([2H])[2H]" please.
100 to 500 nM

Quote IC50 reported for "Cc1[nH]nc2c1-c1cnc(NC(=O)[C@@H](NC(=O)c3ccnn3CCCF)C(C3CC3)C3CC3)cc1COCC2" please.
100 to 500 nM

Quote IC50 reported for Cc1[nH]nc2c1-c1cc(F)c(NC(=O)[C@@H](NC(=O)c3ccnn3C(C)CF)C(C3CC3)C3CC3)cc1COCC2 (single isomer, unassigned) [compound 42a] please.
≤ 100 nM

Quote IC50 reported for "COCCCn1nccc1C(=O)N[C@H](C(=O)Nc1cc2c(cc1F)-c1c(n[nH]c1C)CCOC2)C(C1CC1)C1CC1" please.
≤ 100 nM

Quote IC50 reported for "Cc1[nH]nc2c1-c1cc(F)c(NC(=O)[C@@H](NC(=O)c3ccnn3C(C)C)C(C3CC3)C3CC3)cc1CN(CC(F)F)CC2" please.
100 to 500 nM

Quote IC50 reported for Cc1[nH]nc2c1-c1cc(F)c(NC(=O)[C@@H](NC(=O)c3ccnn3C(C)C)C(C3CC3)C3CC3)cc1CN(C(C)C(F)(F)F)C(=O)C2 (single isomer, unassigned) [compound 186a] please.
100 to 500 nM

Quote IC50 reported for "Cc1[nH]nc2c1-c1cc(F)c(NC(=O)[C@@H](NC(=O)c3ccnn3CC3COC3)C(C3CC3)C3CC3)cc1COCC2" please.
100 to 500 nM

Quote IC50 reported for "Cc1[nH]nc2c1-c1cnc(NC(=O)[C@@H](NC(=O)c3ccnn3C[C@@H]3C[C@H]3F)C(C3CC3)C3CC3)cc1COCC2" please.
100 to 500 nM

Quote IC50 reported for "Cc1[nH]nc2c1-c1cc(F)c(NC(=O)[C@@H](NC(=O)c3ccnn3C)C(C3CC3)C3CC3)cc1CN(C)C(=O)C2" please.
100 to 500 nM

Quote IC50 reported for "Cc1[nH]nc2c1-c1cnc(NC(=O)[C@@H](NC(=O)c3ccnn3C(C)C)C(C3CC3)C3CC3)cc1CN(C(C)C)CC2" please.
100 to 500 nM
